All values here come from patent US20230265151A1.

Target: T1, human glucose-dependent insulinotropic polypeptide (GIP) receptor (human, UniProt P48546 22-466)
T1 sequence (looked up): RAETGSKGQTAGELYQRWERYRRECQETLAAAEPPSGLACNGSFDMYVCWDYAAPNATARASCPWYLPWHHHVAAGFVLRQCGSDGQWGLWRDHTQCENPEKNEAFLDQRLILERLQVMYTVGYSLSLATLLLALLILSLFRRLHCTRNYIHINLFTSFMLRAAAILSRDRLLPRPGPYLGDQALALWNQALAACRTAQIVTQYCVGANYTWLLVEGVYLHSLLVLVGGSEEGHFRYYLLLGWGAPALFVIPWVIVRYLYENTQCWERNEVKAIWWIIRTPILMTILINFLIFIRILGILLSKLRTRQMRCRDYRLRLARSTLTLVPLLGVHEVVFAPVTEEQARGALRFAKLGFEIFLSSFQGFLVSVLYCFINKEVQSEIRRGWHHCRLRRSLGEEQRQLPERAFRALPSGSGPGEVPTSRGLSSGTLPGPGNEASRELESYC
Test: cell-based or functional assay
*1 amine or outer side, *2 acyl side, *3 side chain or, on linkers, in order; H or OH if unused. Where no end group is shown, it is not given here. Side-chain parts run from the residue outwards. [ ]: non-standard residue; d: D form. The star is where a group is joined. αMePhe(2-F) = C[C@](N)(Cc1ccccc1F)C(=O)O; γGlu = O=C(O)[C@H](CCC(=O)[*:2])N[*:1]; C14 diacid = O=C(O)CCCCCCCCCCCCC(=O)*; εLys = N[C@@H](CCCCN[*:1])C(=O)[*:2]; αMeY = C[C@](N)(Cc1ccc(O)cc1)C(=O)O; αMeF = C[C@](N)(Cc1ccccc1)C(=O)O; αMeL = CC(C)C[C@](C)(N)C(=O)O; Orn = NCCC[C@H](N)C(=O)O; AEEA = NCCOCCOCC(=O)O; Aib = CC(C)(N)C(=O)O
Threshold rule: cAMP EC50 greater than or equal to 30 pM is criterion met; below that, criterion not met.

Could you please find out whether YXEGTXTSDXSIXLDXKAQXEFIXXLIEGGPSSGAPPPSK (Aib2, αMeF(2F)6, 4Pal10, αMeL13, Orn16, K17(Z), Aib20, D-Glu24, αMeY25, K40(Z), C-terminal NH2; Z = AEEA3-(γ-Glu)-CO-(CH2)12-CO2H) [Example 225] has cAMP EC50 that meets 30 pM or exceeds it? criterion met

Could you please find out whether YXEGTXTSDXSIXLDXKAQXEFIEXLIEGGKSSGAPPPS (Aib2, αMeF(2F)6, 4Pal10, αMeL13, Orn16, K17(Z), Aib20, αMeY25, K31(Z), C-terminal NH2; Z = AEEA2-(γ-Glu)-CO-(CH2)12-CO2H) [Example 158] has cAMP EC50 that meets 30 pM or exceeds it? criterion not met

Could you please find out whether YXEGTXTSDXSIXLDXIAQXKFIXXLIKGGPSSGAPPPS (Aib2, αMeF(2F)6, 4Pal10, αMeL13, Orn16, Aib20, K21(Z), D-Glu24, αMeY25, K28(Z), C-terminal NH2; Z = AEEA2-(γ-Glu)-(10-(4-carboxyphenoxy)decanoyl)) [Example 275] has cAMP EC50 that meets 30 pM or exceeds it? criterion not met

Could you please find out whether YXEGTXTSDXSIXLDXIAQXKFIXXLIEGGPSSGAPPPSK (Aib2, αMeF(2F)6, 4Pal10, αMeL13, Orn16, Aib20, K21(Z), D-Glu24, αMeY25, K40(Z), C-terminal NH2; Z = AEEA3-(γ-Glu)-CO-(CH2)12-CO2H) [Example 228] has cAMP EC50 that meets 30 pM or exceeds it? criterion not met

Could you please find out whether YXEGTXTSDXSIXLDXIAQXKFIKXLIEGGPSSGAPPPS (Aib2, αMeF(2F)6, 4Pal10, αMeL13, Orn16, Aib20, K21(Z), K24(Z), αMeY25, C-terminal NH2; Z = AEEA2-CO-(CH2)12-CO2H) [Example 191] has cAMP EC50 that meets 30 pM or exceeds it? criterion met

Could you please find out whether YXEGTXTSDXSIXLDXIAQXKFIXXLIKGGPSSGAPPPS (Aib2, αMeF(2F)6, OMeY10, αMeL13, Orn16, Aib20, K21(Z), D-Glu24, αMeY25, K28(Z), C-terminal NH2; Z = AEEA2-(γ-Glu)-CO-(CH2)12-CO2H) [Example 263] has cAMP EC50 that meets 30 pM or exceeds it? criterion not met

Could you please find out whether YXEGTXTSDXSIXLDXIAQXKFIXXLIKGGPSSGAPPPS (Aib2, αMeF(2F)6, 4Pal10, αMeL13, Orn16, Aib20, K21(Z), D-Glu24, αMeY25, K28(Z), C-terminal NH2; Z = AEEA2-CO-(CH2)12-CO2H) [Example 222] has cAMP EC50 that meets 30 pM or exceeds it? criterion not met

Could you please find out whether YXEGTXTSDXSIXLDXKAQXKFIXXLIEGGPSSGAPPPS (Aib2, αMeF(2F)6, 2Nal10, αMeL13, Orn16, K17(Z), Aib20, K21(Z), D-Glu24, αMeY25, C-terminal NH2; Z = AEEA2-CO-(CH2)12-CO2H) [Example 255] has cAMP EC50 that meets 30 pM or exceeds it? criterion not met

Could you please find out whether Y[Aib]EGT[αMeF]TSDV[Aib]I[αMeL]LD[Orn]K([AEEA-AEEA-γGlu-C14 diacid])AQ[Aib]EFIK([AEEA-AEEA-γGlu-C14 diacid])[αMeY]LIEGGKSSGAPPPS-NH2 (not fully specified) [Example 182] has cAMP EC50 that meets 30 pM or exceeds it? criterion met

Could you please find out whether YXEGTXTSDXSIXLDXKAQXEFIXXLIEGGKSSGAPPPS (Aib2, αMeF(2F)6, 4Pal10, αMeL13, Orn16, K17(Z), 4Pal20, D-Glu24, αMeY25, K31(Z), C-terminal NH2; Z = AEEA2-(γ-Glu)-CO-(CH2)12-CO2H) [Example 156] has cAMP EC50 that meets 30 pM or exceeds it? criterion met

Could you please find out whether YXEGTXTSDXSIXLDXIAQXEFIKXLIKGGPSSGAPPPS (Aib2, αMeF(2F)6, 4Pal10, αMeL13, Orn16, Aib20, K24(Z), αMeY25, K28(Z), C-terminal NH2; Z = AEEA2-(γ-Glu)-(4-(4-tert-butylphenyl)butanoyl)) [Example 203] has cAMP EC50 that meets 30 pM or exceeds it? criterion met

Could you please find out whether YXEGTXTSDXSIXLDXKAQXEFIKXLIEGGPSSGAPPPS (Aib2, aMeF(2F)6, 4Pal10, aMeL13, Orn16, K17(Z), Aib20, K24(Z), αMeY25, C-terminal NH2; Z = eK-gE-C14_OH (so in the source)) [Example 161] has cAMP EC50 that meets 30 pM or exceeds it? criterion not met

Could you please find out whether Y[Aib]EGT[αMePhe(2-F)]TSDV[Aib]I[αMeL]LD[Orn]K([AEEA-AEEA-εLys-C14 diacid])AQ[Aib]EFI[dE][αMeY]LIEGGK([AEEA-AEEA-εLys-C14 diacid])SSGAPPPS-NH2 [Example 163] has cAMP EC50 that meets 30 pM or exceeds it? criterion met

Could you please find out whether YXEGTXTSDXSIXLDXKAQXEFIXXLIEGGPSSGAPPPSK (Aib2, αMeF(2F)6, OMeY10, αMeL13, Orn16, K17(Z), Aib20, D-Glu24, αMeY25, K40(Z), C-terminal NH2; Z = AEEA2-(γ-Glu)-CO-(CH2)12-CO2H) [Example 261] has cAMP EC50 that meets 30 pM or exceeds it? criterion not met

Could you please find out whether YXEGTXTSDXSIXLDXIAQXEFIKXLIEGGKSSGAPPPS (Aib2, αMeF(2F)6, 4Pal10, αMeL13, Orn16, Aib20, K24(Z), αMeY25, K31(Z), C-terminal NH2; Z = AEEA2-CO-(CH2)12-CO2H) [Example 193] has cAMP EC50 that meets 30 pM or exceeds it? criterion not met

Could you please find out whether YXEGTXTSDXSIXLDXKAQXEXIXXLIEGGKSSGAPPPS (Aib2, αMeF6, 4Pal10, αMeL13, Orn16, K17(Z), Aib20, αMeF22, D-Glu24, αMeF25, K31(Z), C-terminal NH2; Z = AEEA2-(γ-Glu)-CO-(CH2)10-CH3) [Example 174] has cAMP EC50 that meets 30 pM or exceeds it? criterion not met

Could you please find out whether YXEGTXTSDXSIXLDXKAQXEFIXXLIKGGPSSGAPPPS (Aib2, αMeF(2F)6, OMeY10, αMeL13, Orn16, K17(Z), Aib20, D-Glu24, αMeY25, K28(Z), C-terminal NH2; Z = AEEA2-(γ-Glu)-(10-(4-carboxyphenoxy)decanoyl)) [Example 278] has cAMP EC50 that meets 30 pM or exceeds it? criterion not met

Could you please find out whether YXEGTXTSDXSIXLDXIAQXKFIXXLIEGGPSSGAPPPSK (Aib2, αMeF(2F)6, 4Pal10, αMeL13, Orn16, Aib20, K21(Z), D-Glu24, αMeY25, K40(Z), C-terminal NH2; Z = AEEA2-(γ-Glu)-(11-(4-carboxyphenoxy)undecanoyl)) [Example 288] has cAMP EC50 that meets 30 pM or exceeds it? criterion not met

Could you please find out whether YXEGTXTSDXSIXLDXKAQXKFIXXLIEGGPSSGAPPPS (Aib2, αMeF(2F)6, 2Nal10, αMeL13, Orn16, K17(Z), Aib20, K21(Z), D-Glu24, αMeY25, C-terminal NH2; Z = AEEA2-(γ-Glu)-CO-(CH2)12-CO2H) [Example 249] has cAMP EC50 that meets 30 pM or exceeds it? criterion not met

Could you please find out whether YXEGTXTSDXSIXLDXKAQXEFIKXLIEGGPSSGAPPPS (Aib2, αMeF(2F)6, 4Pal10, αMeL13, Orn16, K17(Z), Aib20, K24(Z), αMeY25, C-terminal NH2; Z = (εK)-(εK)-(γ-Glu)-CO-(CH2)12-CO2H) [Example 162] has cAMP EC50 that meets 30 pM or exceeds it? criterion not met

Could you please find out whether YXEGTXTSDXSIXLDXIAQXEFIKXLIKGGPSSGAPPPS (Aib2, αMeF(2F)6, 4Pal10, αMeL13, Orn16, Aib20, K24(Z), αMeY25, K28(Z), C-terminal NH2; Z = AEEA2-CO-(CH2)12-CO2H) [Example 192] has cAMP EC50 that meets 30 pM or exceeds it? criterion met

Could you please find out whether YXEGTXTSDVXIXLDXKAQXEFIXXLIEGGKSSGAPPPS (Aib2, αMeF(2F)6, αMeS11, αMeL13, Orn16, K17(Z), Aib20, D-Glu24, αMeY25, K31(Z), C-terminal NH2; Z = AEEA2-(γ-Glu)-CO-(CH2)12-CO2H) [Example 212] has cAMP EC50 that meets 30 pM or exceeds it? criterion met

Could you please find out whether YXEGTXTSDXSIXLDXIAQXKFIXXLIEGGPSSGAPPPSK (Aib2, αMeF(2F)6, 4Pal10, αMeL13, Orn16, Aib20, K21(Z), D-Glu24, αMeY25, K40(Z), C-terminal NH2; Z = AEEA2-(γ-Glu)-(10-(4-carboxyphenoxy)decanoyl)) [Example 276] has cAMP EC50 that meets 30 pM or exceeds it? criterion not met
